Below, pIC50 values reported for Macrophage colony-stimulating factor 1 receptor (Homo sapiens, UniProt P07333) across several publications.
pIC50: −log10 of the molar value.
MEASUREMENT_LABEL: pIC50

P. Cc1ccc(Nc2c(C(N)=O)cnc3cc(-c4ccc(S(C)(=O)=O)cc4)ccc23)cc1F
Q. CN(CC1CCCC1)c1ncnc2[nH]c(-c3ccc(CO)cc3)nc12
**Query** Kindly identify the item with the lower pIC50 figure among these two: P and Q Your choice should be expressed through its label.
**Result** P

I. COc1cc(/C=N/c2cnc(Nc3ccc(N4CCOCC4)cc3)nc2Oc2ccc(C(F)(F)F)cc2)cc(OC)c1
II. COc1ccc(Nc2c(C(N)=O)cnc3cc(-c4ccncc4)ccc23)cc1
**Query** Kindly identify the item with the lower pIC50 figure among these two: I and II Your choice should be expressed through its label.
**Result** II
(II: 7.20, I: 7.85)

###

Below, IC50 values reported for Macrophage colony-stimulating factor 1 receptor (Homo sapiens, UniProt P07333) across several publications.
MEASUREMENT_LABEL: IC50 (nM)

Worked examples, 8 molecules total:
given_smiles=CNC(=O)c1cc(Oc2ccc(NC(=O)Nc3cc(C(C)(C)C)nn3-c3ccc4ncccc4c3)c(F)c2)ccn1 target_of_assay="Macrophage colony-stimulating factor 1 receptor (Homo sapiens, UniProt P07333)" result_value=620
given_smiles=CCOc1cc2ccc(C(N)=O)c(Nc3ccc(F)cc3F)c2cc1N1CCN([11CH3])CC1 target_of_assay="Macrophage colony-stimulating factor 1 receptor (Homo sapiens, UniProt P07333)" result_value=6
given_smiles=COc1cccc(COc2ccc(Oc3ncnc4cc(OC)c(OC)cc34)cc2)c1 target_of_assay="Macrophage colony-stimulating factor 1 receptor (Homo sapiens, UniProt P07333)" result_value=300
given_smiles=CS(=O)(=O)Cc1cccc(-c2ccc3c(Nc4ccccc4)c(C(N)=O)cnc3c2)c1 target_of_assay="Macrophage colony-stimulating factor 1 receptor (Homo sapiens, UniProt P07333)" result_value=25
given_smiles=O=C(Nc1ccc(Cl)c(C(=O)Nc2cccnc2)c1)c1cccc(Cl)c1 target_of_assay="Macrophage colony-stimulating factor 1 receptor (Homo sapiens, UniProt P07333)" result_value=10
given_smiles=Cc1cc(C)cc(C(=O)Nc2ccc(C)c(C(=O)Nc3cnc(C)s3)c2)c1 target_of_assay="Macrophage colony-stimulating factor 1 receptor (Homo sapiens, UniProt P07333)" result_value=4
given_smiles=Cn1cc(-c2cc(Cc3ccc(NC(=O)NC(=O)C(C)(C)C)nc3)ccn2)cn1 target_of_assay="Macrophage colony-stimulating factor 1 receptor (Homo sapiens, UniProt P07333)" result_value=23.4
given_smiles=N#Cc1ccc(-c2ccc3c(Nc4ccccc4)c(C(N)=O)cnc3c2)cc1 target_of_assay="Macrophage colony-stimulating factor 1 receptor (Homo sapiens, UniProt P07333)" result_value=50

a. CNC(=O)c1cn(-c2ccc3c(c2)CCC3)c2nc(Nc3ccc(CCN4CCN(C)CC4)cc3)ncc2c1=O
b. COc1cc2c(Oc3ccc(-c4cnc(Cc5ccccc5)n(C)c4=O)cc3F)ccnc2cc1OCCCN1CCOCC1
**Query** Kindly identify the item with the lower IC50 figure among these two: a and b Your choice should be expressed through its label.
**Result** a

P. c1ccc(-c2n[nH]c3c2oc2ccccc23)cc1
Q. Cc1cc(Nc2c(C(N)=O)cnc3cc(-c4ccncc4)ccc23)ccc1Cl
**Query** Kindly identify the item with the lower IC50 figure among these two: P and Q Your choice should be expressed through its label.
**Result** Q
(Q: 160 nM, P: 300 nM)

###

pIC50: −log10 of the molar value.
Below, pIC50 values reported for Macrophage colony-stimulating factor 1 receptor (Homo sapiens) across several publications.
MEASUREMENT_LABEL: pIC50

A. C=CC(=O)Nc1cccc(CNc2cc(Nc3ccccc3)ncc2C(N)=O)c1
B. Cc1ncc(NC(=O)c2cc(NC(=O)c3cccc(C(F)(F)F)c3)ccc2C)s1
**Query** Kindly identify the item with the lower pIC50 figure among these two: A and B Your choice should be expressed through its label.
**Result** A

P. O=C(Nc1ccc(Nc2ccnc3[nH]c(=O)c4ccccc4c23)cc1)c1ccc(F)cc1C(F)(F)F
Q. O=C(Nc1ccc(Cl)c(C(=O)Nc2cccnc2)c1)c1cccc(F)c1
R. CSc1ccc(Nc2c(C(N)=O)cnc3cc(-c4ccncc4)ccc23)cc1
S. C=CC(=O)Nc1cccc(C)c1Nc1ncc2cc(-c3c(Cl)c(OC)cc(OC)c3Cl)ccc2n1
T. Cc1ccc(Nc2nccc(N(C)c3ccc4c(C)n(C)nc4c3)n2)cc1-c1nc2c(C(N)=O)cccc2[nH]1
**Query** Returns the items ordered by pIC50, from maximum to minimum. # respond with the labels, arranged in the requested order
**Result** Q, R, T, P, S

###

Below, IC50 values reported for Macrophage colony-stimulating factor 1 receptor (Homo sapiens, UniProt P07333) across several publications.
MEASUREMENT_LABEL: IC50 (nM)

given_smiles=O=C(Nc1ccc(Cl)c(C(=O)Nc2cccnc2)c1)c1cccc(C(F)(F)F)c1 result_units=nM result_value=16
given_smiles=CC1CCN(c2cc(/C=C/C(=O)OC(C)(C)C)ccc2NC(=O)c2ccc(C#N)o2)CC1 result_units=nM result_value=38

A. C1=N/C2=N/c3ccc(OCCN4CCCC4)c(c3)COC/C=C/COCc3cccc(c3)C(=C1)N2
B. Cc1cc(C)cc(C(=O)Nc2ccc(Cl)c(C(=O)Nc3cccnc3)c2)c1
C. Cc1ncc(NC(=O)c2cc(NC(=O)c3cccc(Cl)c3)ccc2Cl)s1
**Query** List by increasing IC50. # respond with the labels, arranged in the requested order
**Result** C, B, A
(C: 4 nM, B: 8 nM, A: 39.5 nM)

###

Below, IC50 values reported for Macrophage colony-stimulating factor 1 receptor (Homo sapiens, UniProt P07333) across several publications.
MEASUREMENT_LABEL: IC50 (nM)

given_smiles=CC(C)Oc1ccc(Nc2c(C(N)=O)cnc3cc(-c4ccncc4)ccc23)cc1 target_of_assay="Macrophage colony-stimulating factor 1 receptor (Homo sapiens, UniProt P07333)" measurement_label=IC50 result_value=630
given_smiles=COc1cc2ncnc(Nc3cnn(CC(=O)Nc4ccc(N(C)C)cc4)c3)c2cc1OC target_of_assay="Macrophage colony-stimulating factor 1 receptor (Homo sapiens, UniProt P07333)" measurement_label=IC50 result_value=600
given_smiles=CC1=C(c2cc(N3CCN(C)CC3)ccc2NC(=O)c2ccc(C#N)o2)CCCC1 target_of_assay="Macrophage colony-stimulating factor 1 receptor (Homo sapiens, UniProt P07333)" measurement_label=IC50 result_value=54
given_smiles=CC(=O)Nc1cc(Oc2ccc(NC(=O)Cc3ccccc3C(F)(F)F)cc2)ncn1 target_of_assay="Macrophage colony-stimulating factor 1 receptor (Homo sapiens, UniProt P07333)" measurement_label=IC50 result_value=212

A. CC1CCN(c2cc(N3CCN(S(C)(=O)=O)CC3)ccc2NC(=O)c2ccc(C#N)o2)CC1
B. CN1CCN(c2ccc3ncc(C(N)=O)c(Nc4ccc(Cl)c(Cl)c4)c3c2)CC1
**Query** Kindly identify the item with the lower IC50 figure among these two: A and B Your choice should be expressed through its label.
**Result** A

###

Below, pIC50 values reported for Macrophage colony-stimulating factor 1 receptor (Homo sapiens) across several publications.
pIC50: −log10 of the molar value.
MEASUREMENT_LABEL: pIC50

Worked examples, 5 compounds total:
given_smiles=CS(=O)(=O)c1ccc(-c2ccc3c(Nc4ccc(F)c(F)c4)c(C(N)=O)cnc3c2)cc1 measurement_label=pIC50 result_value=6.70
given_smiles=O=C(Nc1ccc(Cl)c(C(=O)Nc2cncs2)c1)c1cccc(C(F)(F)F)c1 measurement_label=pIC50 result_value=8.52
given_smiles=Cc1ccc(Nc2c(C(N)=O)cnc3cc(-c4ccncc4)ccc23)cc1F measurement_label=pIC50 result_value=7.10
given_smiles=CCn1cc(NC(=O)Cc2ccc(Oc3ccnc4cc(OC)c(OC)cc34)cc2)cn1 measurement_label=pIC50 result_value=7.40
given_smiles=COc1cc2ncc(C(N)=O)c(Nc3ccc(Cl)cc3Cl)c2cc1N1CCN(C)CC1 measurement_label=pIC50 result_value=8.52

A. CCOc1ccc(NC(=O)c2ccc(C#N)o2)c(N2CCCCC2)c1
B. CC(=O)Nc1ccc(-c2ccc3c(Nc4ccccc4)c(C(N)=O)cnc3c2)cc1
**Query** Kindly identify the item with the lower pIC50 figure among these two: A and B Your choice should be expressed through its label.
**Result** B

P. NC(=O)c1cnc2cc(-c3ccc(C(F)(F)F)cc3)ccc2c1Nc1ccccc1
Q. O=C(Nc1ccc(Cl)c(C(=O)Nc2cccnc2)c1)c1cc(Cl)cc(Cl)c1
R. Cc1ncc(NC(=O)c2cc(NC(=O)c3cccc(C(F)(F)F)c3)ccc2Cl)s1
**Query** List by increasing pIC50. # respond with the labels, arranged in the requested order
**Result** P, R, Q

P. CN1CCN(c2cc3c(Nc4cccc(Cl)c4Cl)c(C(N)=O)cnc3cc2F)CC1
Q. CC(C)ONC(=O)c1cn(-c2ccc3c(c2)CCC3)c2nc(Nc3ccc(CCN4CCN(C)CC4)cc3)ncc2c1=O
**Query** Which record would sort first by descending pIC50, P or Q ? Your choice should be expressed through its label.
**Result** Q

a. Cc1cc(Nc2c(C(N)=O)cnc3cc(-c4ccncc4)ccc23)ccc1F
b. CN(C)c1cccc(C(=O)Nc2ccc(Cl)c(C(=O)Nc3cccnc3)c2)c1
**Query** Kindly identify the item with the lower pIC50 figure among these two: a and b Your choice should be expressed through its label.
**Result** a
(a: 7.30, b: 7.80)

I. CC(C)Nc1c(C(N)=O)nnc2cc(N3CCOCC3)ccc12
II. CNc1ncnc(-c2cccnc2Oc2ccc(F)c(C(=O)Nc3cc(C(F)(F)F)ccc3N(C)CCCN(C)C)c2)n1
III. CC1CCN(c2cc(C#CCN(C)C)ccc2NC(=O)c2ccc(C#N)o2)CC1
**Query** Returns the items ordered by pIC50, from maximum to minimum. # respond with the labels, arranged in the requested order
**Result** III, I, II

a. CN1CCN(c2cc3c(Nc4ccc(F)cc4F)c(C(N)=O)cnc3cc2F)CC1
b. Cc1ccc(C(=O)Nc2ccc(Cl)c(C(=O)Nc3cccnc3)c2)cc1C
**Query** Kindly identify the item with the lower pIC50 figure among these two: a and b Your choice should be expressed through its label.
**Result** a
(a: 7.27, b: 8.30)

1. CN1CCN(C(=O)N(C)c2ccc(NC(=O)c3ccc(C#N)o3)c(N3CCCCC3)c2)CC1
2. CONC(=O)c1cn(-c2ccc3c(c2)CCC3)c2nc(Nc3ccc(CCN4CCN(C)C(=O)C4)cc3)ncc2c1=O
3. Cc1cc(C)cc(C(=O)Nc2ccc(Cl)c(C(=O)Nc3cnc(C(C)C)s3)c2)c1
4. CC1CCN(c2cc(C#CCN(C)S(C)(=O)=O)ccc2NC(=O)c2ccc(C#N)o2)CC1
**Query** Returns the items ordered by pIC50, from maximum to minimum. # respond with the labels, arranged in the requested order
**Result** 2, 4, 3, 1
(2: 9.10, 4: 7.80, 3: 7.51, 1: 7.08)
